Where do the numbers come from? From PubChem BioAssay AID2060895.

Tested on: PDC 899932-113-R3-J6 complex spheroid viability;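 note: spheroids exposed to agents for seven days before readout; 100% = DMSO vehicle control wells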
PROTOCOL TEXT: Anticancer human tumor 899932-113-R3-J6-PDC patient-derived melanoma cell line growth inhibition [RAS]; active = viability on the fitted dose curve at most 10% of control; inactive = the rest
RUN CONDITIONS: second compound 0.316 µM; first compound 0.1 µM
Classes used: true (1) = active, false (0) = inactive

COMPOUND	ASSIGNED CATEGORY
CCN1CCN(Cc2ccc(Nc3ncc(F)c(-c4cc(F)c5nc(C)n(C(C)C)c5c4)n3)nc2)CC1 + C#Cc1c(F)ccc2cc(O)cc(-c3ncc4c(N5CC6CCC(C5)N6)nc(OCC56CCCN5CC(F)C6)nc4c3F)c12	false (0)
Nc1ccn(C2OC(CO)C(O)C2(F)F)c(=O)n1 (stereo not drawn) + C=CC(=O)N1CCN(c2nc(OCC3CCCN3C)nc3c(F)c(-c4nc(N)cc(C)c4C(F)(F)F)c(Cl)cc23)C(C)C1	false (0)
CC(C)n1nc(-c2ccc3oc(N)nc3c2)c2c(N)ncnc21 + C=CC(=O)N1CCN(c2nc(OCC3CCCN3C)nc3c(F)c(-c4nc(N)cc(C)c4C(F)(F)F)c(Cl)cc23)C(C)C1	false (0)
O=C(c1ccc(F)c(F)c1Nc1ccc(I)cc1F)N1CC(O)([C@@H]2CCCCN2)C1 + C=CC(=O)N1CCN(c2nc(OCC3CCCN3C)nc3c(F)c(-c4nc(N)cc(C)c4C(F)(F)F)c(Cl)cc23)C(C)C1	true (1)
CC(=O)OC12COC1CC(O)C1(C)C(=O)C(O)C3=C(C)C(OC(=O)C(O)C(NC(=O)OC(C)(C)C)c4ccccc4)CC(O)(C(OC(=O)c4ccccc4)C21)C3(C)C (stereo not drawn) + C#Cc1c(F)ccc2cc(O)cc(-c3ncc4c(N5CC6CCC(C5)N6)nc(OCC56CCCN5CC(F)C6)nc4c3F)c12	false (0)
NC1c2ccccc2OC12CCN(c1cnc3c(N4CCCc5ncccc54)n[nH]c3n1)CC2 (stereo not drawn) + C=CC(=O)N1CCN(c2nc(OCC3CCCN3C)nc3c(F)c(-c4nc(N)cc(C)c4C(F)(F)F)c(Cl)cc23)C(C)C1	false (0)
C=CC(=O)N1CCN(c2nc(OCC3CCCN3C)nc3c(F)c(-c4nc(N)cc(C)c4C(F)(F)F)c(Cl)cc23)C(C)C1 (stereo not drawn) + C#Cc1c(F)ccc2cc(O)cc(-c3ncc4c(N5CC6CCC(C5)N6)nc(OCC56CCCN5CC(F)C6)nc4c3F)c12	false (0)
O=C(c1ccc(F)c(F)c1Nc1ccc(I)cc1F)N1CC(O)([C@@H]2CCCCN2)C1 + C#Cc1c(F)ccc2cc(O)cc(-c3ncc4c(N5CC6CCC(C5)N6)nc(OCC56CCCN5CC(F)C6)nc4c3F)c12	true (1)
